Every entry's value here was drawn from patent US10730863B2.

# TARGET_DESC: UniProtKB Q96RI1
# ASSAY_SUMMARY: FXR EC50 (FXR agonist activity reported with each example)
# Assay type: cell-based
pEC50: −log10 of the molar value.
// reported pEC50 for each item listed

COMPOUND: COc1cc(C(=O)O)nc2ccc(OCC34CCC(/C=C/c5c(-c6c(Cl)cncc6Cl)noc5C5CC5)(CC3)CC4)cc12
pEC50: 7.00
//
COMPOUND: O=C(O)c1ccc(F)c(C(O)C23CCC(OCc4c(-c5c(Cl)cccc5Cl)noc4C4CC4)(CC2)CC3)c1 (centres unmarked)
pEC50: 5.82
//
COMPOUND: CC(Oc1ccc(OCC23CCC(OCc4c(-c5c(Cl)cncc5Cl)noc4C4CC4)(CC2)CC3)cc1)C(=O)O (centres unmarked)
pEC50: 5.82
//
COMPOUND: O=C(O)c1cc(F)c2nc(C34CCC(OCc5c(-c6c(Cl)cncc6Cl)noc5C5CC5)(CC3)CC4)ccc2c1
pEC50: 7.39
//
COMPOUND: O=C(O)c1ccnc(OCC23CCC(OCc4c(-c5c(Cl)cccc5Cl)noc4C4CC4)(CC2)CC3)n1
pEC50: 6.27
//
COMPOUND: O=C(O)c1cc(OCC23CCC(OCc4c(-c5ccccc5C(F)(F)F)noc4C4CC4)(CC2)CC3)ccc1F
pEC50: 6.59
//
COMPOUND: O=C(O)c1ccc(-c2noc(C34CCC(OCc5c(-c6ccccc6OC(F)(F)F)noc5C5CC5)(CC3)CC4)n2)cn1
pEC50: 5.92
//
COMPOUND: O=C(O)c1cccc2nc(C34CCC(CCc5c(-c6ccccc6OC(F)(F)F)noc5C5CC5)(CC3)CC4)sc12
pEC50: 7.66
//
COMPOUND: COc1cc(C(=O)O)ccc1OCC12CCC(/C=C/c3c(-c4c(Cl)cncc4Cl)noc3C3CC3)(CC1)CC2
pEC50: 7.74
//
COMPOUND: O=C(O)c1ccc(C23CCC(COCc4c(-c5c(Cl)cccc5Cl)noc4C4CC4)(CC2)CC3)cc1
pEC50: 6.68
//
COMPOUND: COC1CN(c2cc(C(=O)O)nc3ccc(OCC45CCC(OCc6c(-c7c(Cl)cncc7Cl)noc6C6CC6)(CC4)CC5)cc23)C1
pEC50: 5.85
//
COMPOUND: O=C(O)c1cc(OCC23CCC(OCc4c(-c5c(Cl)cncc5Cl)noc4C4CC4)(CC2)CC3)cc(C(F)(F)F)c1
pEC50: 8.40
//
COMPOUND: O=C(O)c1cc(C23CCC(COCc4c(-c5c(Cl)cccc5Cl)noc4C4CC4)(CC2)CO3)ccc1F
pEC50: 6.41
//
COMPOUND: O=C(O)Cc1ccnc(OCC23CCC(OCc4c(-c5c(Cl)cccc5Cl)noc4C4CC4)(CC2)CC3)c1
pEC50: 6.68

----------
// reported EC50 for each item listed
# TARGET_DESC: FXR (Homo sapiens (Human), UniProt Q96RI1)
# Sequence (Q96RI1 262-486): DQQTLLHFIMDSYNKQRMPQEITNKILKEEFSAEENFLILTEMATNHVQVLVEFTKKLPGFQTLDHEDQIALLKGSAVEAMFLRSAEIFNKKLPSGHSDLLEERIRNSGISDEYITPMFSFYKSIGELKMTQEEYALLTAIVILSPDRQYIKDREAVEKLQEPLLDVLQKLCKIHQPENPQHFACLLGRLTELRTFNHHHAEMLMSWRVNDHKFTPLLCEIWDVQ
# ASSAY_SUMMARY: FXR EC50 (FXR agonist activity reported with each example)
# Format: cell-based

COMPOUND: O=C(O)c1cc(OC(F)F)cc(-c2noc(C34CCC(/C=C/c5c(-c6c(Cl)cncc6Cl)noc5C5CC5)(CC3)OC4)n2)c1
EC50 (µM): 0.46

COMPOUND: O=C(O)c1ccnc(-c2noc(C34CCC(OCc5c(-c6c(Cl)cccc6Cl)noc5C5CC5)(CC3)CC4)n2)c1
EC50 (µM): 2.7

COMPOUND: CC(C)Oc1nc(C(=O)O)cc2ccc(OCC34CCC(OCc5c(-c6c(Cl)cncc6Cl)noc5C5CC5)(CC3)CC4)cc12
EC50 (µM): 0.013

COMPOUND: CS(=O)(=O)NC(=O)c1cccc(C23CCC(COCc4c(-c5c(Cl)cccc5Cl)noc4C4CC4)(CC2)CO3)c1
EC50 (µM): 1.6

COMPOUND: O=C(O)c1cccc(-c2noc(C34CCC(OCc5c(-c6c(Cl)cncc6Cl)noc5C5CC5)(CC3)CC4)n2)c1
EC50 (µM): 0.1

COMPOUND: COC(=O)c1ccc(C23CCC(CNc4c(-c5c(Cl)cccc5Cl)noc4C4CC4)(CC2)CO3)cc1 [Intermediate 203A]
EC50 (µM): 2.8

COMPOUND: COc1ccc(-c2noc(C34CCC(/C=C/c5c(-c6c(Cl)cncc6Cl)noc5C5CC5)(CC3)CC4)n2)cc1C(=O)O
EC50 (µM): 0.023

COMPOUND: O=C(O)c1ccc(N2CCCC2)c2nc(C34CCC(OCc5c(-c6c(Cl)cncc6Cl)noc5C5CC5)(CC3)CC4)ccc12
EC50 (µM): 0.081

COMPOUND: O=C(O)c1cc(-c2nc(C34CCC(OCc5c(-c6c(Cl)cccc6Cl)noc5C5CC5)(CC3)CC4)no2)ccn1
EC50 (µM): 0.21

COMPOUND: CC(C)Oc1cc(Cl)c2nc(C34CCC(OCc5c(-c6c(Cl)cncc6Cl)noc5C5CC5)(CC3)CC4)ccc2c1C(=O)O
EC50 (µM): 0.005

COMPOUND: COc1cc(OCC23CCC(/C=C/c4c(-c5c(Cl)cncc5Cl)noc4C4CC4)(CC2)CO3)cc(C(=O)O)c1
EC50 (µM): 0.11

COMPOUND: COc1cc(OCC23CCC(OCc4c(-c5c(Cl)cncc5Cl)noc4C4CC4)(CC2)CC3)ccc1C(=O)O
EC50 (µM): 0.052

COMPOUND: O=C(O)c1cc(NC(=O)C23CCC(OCc4c(-c5c(Cl)cncc5Cl)noc4C4CC4)(CC2)CC3)cc(C(F)(F)F)c1
EC50 (µM): 1.3

COMPOUND: Clc1cccc(Cl)c1-c1noc(C2CC2)c1COC12CCC(c3nc4ccc(-c5nnn[nH]5)cc4s3)(CC1)CC2
EC50 (µM): 0.39

COMPOUND: O=C(O)c1cccc2nc(C34CCC(OCc5c(-c6c(Cl)cncc6Cl)noc5C5CC5)(CC3)CC4)ccc12
EC50 (µM): 0.036

COMPOUND: O=C(O)c1cc(OCC2CC2)c2cc(OCC34CCC(OCc5c(-c6c(Cl)cncc6Cl)noc5C5CC5)(CC3)CC4)ccc2n1
EC50 (µM): 0.018

COMPOUND: O=C(O)c1ccc(OCC23CCC(OCc4c(-c5c(Cl)cccc5Cl)noc4C4CC4)(CC2)CC3)cc1
EC50 (µM): 0.14

COMPOUND: O=C(O)c1ccc(C23CCC(COCc4c(-c5ccccc5OC(F)(F)F)noc4C4CC4)(CC2)CO3)cc1
EC50 (µM): 0.45

COMPOUND: COc1cncc(Cl)c1-c1noc(C2CC2)c1COC12CCC(COc3cc(C)c(C(=O)O)cn3)(CC1)CC2
EC50 (µM): 0.12

COMPOUND: CC(C)(C(N)=O)c1ccc(C23CCC(/C=C/c4c(-c5c(Cl)cncc5Cl)noc4C4CC4)(CC2)CO3)cc1
EC50 (µM): 0.51

COMPOUND: O=C(O)Cc1cccc(OCC23CCC(OCc4c(-c5c(Cl)cccc5Cl)noc4C4CC4)(CC2)CC3)c1
EC50 (µM): 0.16

COMPOUND: Clc1cccc(Cl)c1-c1noc(C2CC2)c1COCC12CCC(c3cccc(-c4nnn[nH]4)c3)(CC1)OC2
EC50 (µM): 0.87

COMPOUND: O=C(O)c1cc(C(F)(F)F)cc2nc(C34CCC(/C=C/c5c(-c6c(Cl)cncc6Cl)noc5C5CC5)(CC3)CC4)sc12
EC50 (µM): 0.02

COMPOUND: COc1cncc(Cl)c1-c1noc(C2CC2)c1COC12CCC(COc3ccc4cc(C(=O)O)cc(C5CC5)c4n3)(CC1)CC2
EC50 (µM): 0.023

COMPOUND: COc1cc(OCC23CCC(OCc4c(-c5c(Cl)cncc5Cl)noc4C4CC4)(CC2)CC3)nc(C(=O)O)c1
EC50 (µM): 0.074

COMPOUND: O=C(O)c1cccc(-c2noc(C34CCC(COCc5c(-c6c(Cl)cccc6Cl)noc5C5CC5)(CC3)CO4)n2)c1
EC50 (µM): 0.96

COMPOUND: O=C(O)c1cc(-c2noc(C34CCC(OCc5c(-c6c(Cl)cccc6Cl)noc5C5CC5)(CC3)CO4)n2)ccc1F
EC50 (µM): 0.098
